Source listed as ChEMBL document CHEMBL2203145.

system: Advanced glycosylation end product-specific receptor (Homo sapiens, UniProt Q15109)
Sequence (Q15109 whole entry): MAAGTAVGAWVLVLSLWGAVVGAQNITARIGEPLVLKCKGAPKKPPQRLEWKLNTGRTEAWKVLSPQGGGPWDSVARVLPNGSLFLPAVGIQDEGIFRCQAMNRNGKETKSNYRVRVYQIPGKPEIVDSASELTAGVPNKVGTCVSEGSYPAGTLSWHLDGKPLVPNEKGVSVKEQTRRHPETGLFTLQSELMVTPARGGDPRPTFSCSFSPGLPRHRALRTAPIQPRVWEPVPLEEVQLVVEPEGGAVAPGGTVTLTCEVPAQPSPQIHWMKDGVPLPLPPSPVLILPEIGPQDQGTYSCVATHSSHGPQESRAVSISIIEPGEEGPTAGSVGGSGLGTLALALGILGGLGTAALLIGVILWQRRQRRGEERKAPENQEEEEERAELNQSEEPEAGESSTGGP
method: Antagonist activity at human biotinylated RAGE assessed as inhibition of amyloid beta binding at 10 uM after 60 mins by ELISA
measurement-kind: inhibition (%)

CCCCc1sc(-c2ccc(Oc3ccc(Cl)cc3)cc2)nc1-c1ccc(OCCCN(CC)CC)cc1 ... 57
CCCCc1nc(-c2ccc(OCCCN(CC)CC)cc2)sc1-c1ccc(Oc2ccc(Cl)cc2)cc1 ... 49.6
CCCCc1sc(-c2ccc(OCCCN(CC)CC)cc2)nc1-c1ccc(Oc2ccc(Cl)cc2)cc1 ... 58.9
CCCCc1sc(-c2ccc(OCCN(CC)CC)cc2)nc1-c1ccc(Oc2ccc(Cl)cc2)cc1 ... 55.1
CCCCc1sc(-c2ccc(OCCCN(C)C)cc2)nc1-c1ccc(Oc2ccc(Cl)cc2)cc1 ... 46.2
CCCCc1nc(-c2ccc(Oc3ccc(Cl)cc3)cc2)sc1-c1ccc(OCCCN(CC)CC)cc1 ... 57.1
CCCCc1sc(-c2ccc(OCCN3CCCC3)cc2)nc1-c1ccc(Oc2ccc(Cl)cc2)cc1 ... 64.2

I: CCCCc1sc(-c2ccc(OCCCN3CCCC3)cc2)nc1-c1ccc(Oc2ccc(Cl)cc2)cc1
II: CCCCc1sc(-c2ccc(Oc3ccc(Cl)cc3)cc2)nc1-c1ccc(O)cc1
[Q] Which is greater in inhibition, the first item I or the second item II ? # reply format: chosen label
[A] I

###

What follows is a record of pIC50 for Advanced glycosylation end product-specific receptor (Homo sapiens).
pIC50: −log10 of the molar value.
measurement-kind: pIC50

1: CCCCc1sc(-c2ccc(Oc3ccc(Cl)cc3)cc2)nc1-c1ccc(OCCCN(CC)CC)cc1
2: CCCCc1sc(Nc2ccc(OCCCN(CC)CC)cc2)nc1-c1ccc(Oc2ccc(Cl)cc2)cc1
[Q] Parameter metric = pIC50. Return the lower-valued option from 1 and 2 . # reply format: chosen label
[A] 1

a: CCCCc1sc(-c2ccc(OCCCN3CCN(C)CC3)cc2)nc1-c1ccc(Oc2ccc(Cl)cc2)cc1
b: CCCCc1sc(-c2ccc(OCC3CCCN(CC)C3)cc2)nc1-c1ccc(Oc2ccc(Cl)cc2)cc1 (stereo not given)
[Q] Which is greater in pIC50, the first item a or the second item b ? # reply format: chosen label
[A] b

###

system: UniProt Q15109
method: Antagonist activity at RAGE transfected in CHO cells assessed as inhibition of amyloid beta 42-induced NFkappaB activation at 1 uM after 18 hrs by luciferase reporter gene assay
Assay type: functional, cell-based
measurement-kind: inhibition (%)

Past entries and their recorded results:
CCCCc1sc(-c2ccc(OCCCN3CCCCC3)cc2)nc1-c1ccc(Oc2ccc(Cl)cc2)cc1 ... 11.7
CCCCc1sc(-c2ccc(OCC3CCCN(CC)C3)cc2)nc1-c1ccc(Oc2ccc(Cl)cc2)cc1 (stereo not given) ... 3
CCCCc1sc(-c2ccc(OCCN3CCCC3)cc2)nc1-c1ccc(Oc2ccc(Cl)cc2)cc1 ... 2.5
CCCCc1sc(-c2ccc(OCCN3CCCCC3)cc2)nc1-c1ccc(Oc2ccc(Cl)cc2)cc1 ... 13.5
CCCCc1sc(-c2ccc(OCCN(CC)CC)cc2)nc1-c1ccc(Oc2ccc(Cl)cc2)cc1 ... 11.3

I: CCCCc1nc(-c2ccc(Oc3ccc(Cl)cc3)cc2)sc1-c1ccc(OCCCN(CC)CC)cc1
II: CCCCc1sc(-c2ccc(OCCN(C)C)cc2)nc1-c1ccc(Oc2ccc(Cl)cc2)cc1
III: CCCCc1nc(-c2ccc(Oc3ccc(Cl)cc3)cc2)sc1-c1ccc(OCC2CCCN(CC)C2)cc1 (stereo not given)
IV: CCCCc1sc(-c2ccc(OCCN3CCN(C)CC3)cc2)nc1-c1ccc(Oc2ccc(Cl)cc2)cc1
V: CCCCc1sc(-c2ccc(OCCCN3CCN(C)CC3)cc2)nc1-c1ccc(Oc2ccc(Cl)cc2)cc1
[Q] Please order the records by their reported inhibition, lowest number first. # the answer lists labels in the order requested
[A] II, V, III, I, IV

###

system: UniProt Q62151
method: Antagonist activity at RAGE overexpressed in mouse bEND.3 cells assessed as inhibition of FITC-amyloid beta 42 transport across blood-brain barrier at 10 uM by fluorescence assay
Format: functional, cell-based
measurement-kind: inhibition (%)

Past entries and their recorded results:
CCCCc1sc(-c2ccc(OCCN3CCCCC3)cc2)nc1-c1ccc(Oc2ccc(Cl)cc2)cc1 ... 55.3
CCCCc1sc(-c2ccc(OCCCN(CC)CC)cc2)nc1-c1ccc(Oc2ccc(Cl)cc2)cc1 ... 73.3
CCCCc1sc(-c2ccc(OCCCN3CCN(C)CC3)cc2)nc1-c1ccc(Oc2ccc(Cl)cc2)cc1 ... 64.3
CCCCc1sc(-c2ccc(OCCN3CCN(C)CC3)cc2)nc1-c1ccc(Oc2ccc(Cl)cc2)cc1 ... 68.6

A: CCCCc1sc(-c2ccc(OCCCN3CCCCC3)cc2)nc1-c1ccc(Oc2ccc(Cl)cc2)cc1
B: CCCCc1sc(-c2ccc(OCCN3CCCC3)cc2)nc1-c1ccc(Oc2ccc(Cl)cc2)cc1
[Q] Parameter metric = inhibition. Return the lower-valued option from A and B . # reply format: chosen label
[A] B

###

system: Advanced glycosylation end product-specific receptor (Mus musculus)
method: Antagonist activity at RAGE overexpressed in mouse bEND.3 cells assessed as inhibition of FITC-amyloid beta 42 transport across blood-brain barrier at 10 uM by fluorescence assay
Assay type: functional, cell-based
measurement-kind: inhibition (%)

CCCCc1sc(-c2ccc(OCCN(C)C)cc2)nc1-c1ccc(Oc2ccc(Cl)cc2)cc1 ... 66.6
CCCCc1sc(-c2ccc(OCC3CCCN(CC)C3)cc2)nc1-c1ccc(Oc2ccc(Cl)cc2)cc1 (stereo not drawn) ... 77.5
CCCCc1sc(-c2ccc(Oc3ccc(Cl)cc3)cc2)nc1-c1ccc(OCCCN(CC)CC)cc1 ... 71.7

###

system: UniProt Q15109
method: Antagonist activity at human biotinylated RAGE assessed as inhibition of amyloid beta binding at 10 uM after 60 mins by ELISA
measurement-kind: inhibition (%)

CCCCc1sc(-c2ccc(Oc3ccc(Cl)cc3)cc2)nc1-c1ccc(OCC2CCCN(CC)C2)cc1 (stereo not given) ... 55.9

A: CCCCc1nc(-c2ccc(Oc3ccc(Cl)cc3)cc2)sc1-c1ccc(OCC2CCCN(CC)C2)cc1 (stereo not given)
B: CCCCc1sc(-c2ccc(Oc3ccc(Cl)cc3)cc2)nc1-c1ccc(OCc2ccccc2)cc1
C: CCCCc1sc(-c2ccc(OCCN3CCOCC3)cc2)nc1-c1ccc(Oc2ccc(Cl)cc2)cc1
[Q] Arrange by inhibition, high to low. # the answer lists labels in the order requested
[A] A, C, B

###

What follows is a record of IC50 for Advanced glycosylation end product-specific receptor (Homo sapiens, UniProt Q15109).
measurement-kind: IC50 (µM)

CCCCc1sc(-c2ccc(Oc3ccc(Cl)cc3)cc2)nc1-c1ccc(OCC2CCCN(CC)C2)cc1 (stereo unspecified) ... 1.91
CCCCc1sc(-c2ccc(OCCCN(CC)CC)cc2)nc1-c1ccc(Oc2ccc(Cl)cc2)cc1 ... 1.72
CCCCc1sc(-c2ccc(OCCN3CCCC3)cc2)nc1-c1ccc(Oc2ccc(Cl)cc2)cc1 ... 0.91
CCCCc1sc(-c2ccc(OCCN3CCN(C)CC3)cc2)nc1-c1ccc(Oc2ccc(Cl)cc2)cc1 ... 1.21

1: CCCCc1sc(-c2ccc(OCCN3CCCCC3)cc2)nc1-c1ccc(Oc2ccc(Cl)cc2)cc1
2: CCCCc1sc(-c2ccc(OCCCN3CCCCC3)cc2)nc1-c1ccc(Oc2ccc(Cl)cc2)cc1
[Q] Which is greater in IC50, the first item 1 or the second item 2 ? # reply format: chosen label
[A] 2

###

system: Advanced glycosylation end product-specific receptor (Mus musculus) (UniProt Q62151)
Sequence (Q62151 whole entry): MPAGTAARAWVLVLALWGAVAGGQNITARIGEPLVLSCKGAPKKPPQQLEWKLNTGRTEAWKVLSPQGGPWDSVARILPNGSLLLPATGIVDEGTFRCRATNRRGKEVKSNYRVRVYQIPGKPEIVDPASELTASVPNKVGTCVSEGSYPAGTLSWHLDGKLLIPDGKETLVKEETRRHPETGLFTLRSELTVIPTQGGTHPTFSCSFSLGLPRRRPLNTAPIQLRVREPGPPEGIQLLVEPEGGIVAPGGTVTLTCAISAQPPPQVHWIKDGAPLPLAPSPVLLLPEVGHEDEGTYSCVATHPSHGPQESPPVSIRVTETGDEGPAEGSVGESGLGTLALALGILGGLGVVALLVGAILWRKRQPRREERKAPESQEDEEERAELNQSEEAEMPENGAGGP
method: Antagonist activity at RAGE overexpressed in mouse bEND.3 cells assessed as inhibition of FITC-amyloid beta 42 transport across blood-brain barrier at 10 uM by fluorescence assay
Type: functional, cell-based
measurement-kind: inhibition (%)

CCCCc1nc(-c2ccc(Oc3ccc(Cl)cc3)cc2)sc1-c1ccc(OCCCN(CC)CC)cc1 ... 63.5
CCCCc1sc(-c2ccc(Oc3ccc(Cl)cc3)cc2)nc1-c1ccc(OCC2CCCN(CC)C2)cc1 (stereo not drawn) ... 68.3
CCCCc1nc(-c2ccc(Oc3ccc(Cl)cc3)cc2)sc1-c1ccc(OCC2CCCN(CC)C2)cc1 (stereo not drawn) ... 61.5

###

system: Advanced glycosylation end product-specific receptor (Homo sapiens, UniProt Q15109)
method: Antagonist activity at human biotinylated RAGE assessed as inhibition of amyloid beta binding at 10 uM after 60 mins by ELISA
measurement-kind: inhibition (%)

CCCCc1sc(C(=O)Nc2ccc(OCCCN(CC)CC)cc2)nc1-c1ccc(Oc2ccc(Cl)cc2)cc1 ... 48.1
CCCCc1sc(-c2ccc(OCCN3CCCCC3)cc2)nc1-c1ccc(Oc2ccc(Cl)cc2)cc1 ... 60.1
CCCCc1sc(-c2ccc(OCCCN3CCN(C)CC3)cc2)nc1-c1ccc(Oc2ccc(Cl)cc2)cc1 ... 59.2
CCCCc1sc(-c2ccc(OCCN(C)C)cc2)nc1-c1ccc(Oc2ccc(Cl)cc2)cc1 ... 51.8
CCCCc1sc(-c2ccc(OCC3CCCN(CC)C3)cc2)nc1-c1ccc(Oc2ccc(Cl)cc2)cc1 (stereo unspecified) ... 58
CCCCc1sc(-c2ccc(OCCCN3CCCCC3)cc2)nc1-c1ccc(Oc2ccc(Cl)cc2)cc1 ... 59.2
CCCCc1sc(-c2ccc(OCCN3CCN(C)CC3)cc2)nc1-c1ccc(Oc2ccc(Cl)cc2)cc1 ... 54.7
CCCCc1sc(NC(=O)c2ccc(OCCCN(CC)CC)cc2)nc1-c1ccc(Oc2ccc(Cl)cc2)cc1 ... 60.2
CCCCc1nc(-c2ccc(OCC3CCCN(CC)C3)cc2)sc1-c1ccc(Oc2ccc(Cl)cc2)cc1 (stereo unspecified) ... 47.7

A: CCCCc1sc(-c2ccc(OCCCN3CCOCC3)cc2)nc1-c1ccc(Oc2ccc(Cl)cc2)cc1
B: CCCCc1sc(Nc2ccc(OCCCN(CC)CC)cc2)nc1-c1ccc(Oc2ccc(Cl)cc2)cc1
[Q] Parameter metric = inhibition. Return the lower-valued option from A and B . # reply format: chosen label
[A] A
(A: 40.6%, B: 60.9%)
